# Tested on: PAK2 (human), Q13177 [T402E]
# Sequence (Q13177 whole entry T402E, looked up): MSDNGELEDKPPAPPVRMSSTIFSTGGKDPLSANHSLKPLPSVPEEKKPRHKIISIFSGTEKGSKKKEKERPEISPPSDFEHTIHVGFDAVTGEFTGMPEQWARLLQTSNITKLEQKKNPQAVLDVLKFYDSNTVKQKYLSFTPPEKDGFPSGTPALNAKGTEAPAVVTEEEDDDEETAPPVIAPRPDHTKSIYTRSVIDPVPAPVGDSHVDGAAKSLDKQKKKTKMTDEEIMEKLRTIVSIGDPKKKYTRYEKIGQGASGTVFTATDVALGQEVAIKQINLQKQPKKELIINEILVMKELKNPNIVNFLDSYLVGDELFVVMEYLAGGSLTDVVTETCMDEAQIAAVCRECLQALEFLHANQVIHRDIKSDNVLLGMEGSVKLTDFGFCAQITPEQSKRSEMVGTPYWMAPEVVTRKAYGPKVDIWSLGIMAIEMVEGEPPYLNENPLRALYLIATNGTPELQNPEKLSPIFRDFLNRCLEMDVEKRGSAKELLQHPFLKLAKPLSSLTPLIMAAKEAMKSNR
# assay.remarks: radiometric filter-binding kinase assay
# run.conditions: compound 10.0 µM
Overview of recorded residual activity for various molecules
Your answer is read as %, so omit the unit and give the number.

NC(=O)c1cc(-c2ccnc(NC3CCCCC3)c2)nc(N2CCNCC2)c1    57
FC(F)(F)c1ccc(-c2ccc(Oc3cncc4sc(-c5nn[nH]n5)cc34)cc2)cc1    101
CC(C)C[C@H](NC(=O)CNC(=O)c1cc(Cl)ccc1Cl)B1OC(=O)CC(CC(=O)O)(C(=O)O)O1 (stereo not given in full)    92

*Q* Entry COC(=O)/C=C/C(=O)OC : reported residual activity = ?
*A* 101

*Q* Entry O=C(N[C@@H](COc1ccc2[nH]c(=O)[nH]c2c1)c1ccccc1)c1cccn(Cc2ccc(F)c(F)c2)c1=O : reported residual activity = ?
*A* 79

* * *

# tested.on: CSNK2A1 (human) (UniProt P68400)
# Sequence (P68400 whole entry, looked up): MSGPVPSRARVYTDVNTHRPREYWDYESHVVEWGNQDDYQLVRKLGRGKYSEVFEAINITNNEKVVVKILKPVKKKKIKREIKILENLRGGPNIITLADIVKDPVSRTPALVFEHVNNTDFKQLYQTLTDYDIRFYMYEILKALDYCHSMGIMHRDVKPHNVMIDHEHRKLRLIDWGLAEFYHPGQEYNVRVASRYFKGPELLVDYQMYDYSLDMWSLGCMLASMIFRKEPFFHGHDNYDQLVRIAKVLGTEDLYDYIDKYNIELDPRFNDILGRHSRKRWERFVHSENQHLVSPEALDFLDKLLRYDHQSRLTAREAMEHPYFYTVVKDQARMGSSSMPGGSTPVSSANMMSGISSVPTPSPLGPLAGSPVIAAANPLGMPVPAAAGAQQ
# assay.remarks: radiometric filter-binding kinase assay
# run.conditions: compound 0.01 µM
Overview of recorded residual activity for various molecules
Just the number plus its unit, please.

CNc1nc(-c2ccc3c(N)n[nH]c3c2)cc(N2C[C@@H](C(=O)NC3CCCCC3)CC[C@H]2C)n1    103%
O=C(Nc1nc2cc(C(F)(F)F)cc(NC3CC3)n2n1)c1cccnc1    99%
CNC(=O)C1[C@H]2O[C@@](C)([C@@H]1N)n1c3ccccc3c3c4c(c5c6ccccc6n2c5c31)C(=O)NC4 (stereo partly specified)    106%
COc1ccc(N(C(=O)Nc2c(C)cccc2C)c2cc(Nc3ccc(N4CCN(C)CC4)cc3)ncn2)c(OC)c1    98%
COc1cc(O)c2c(c1)[C@H]1OC1C[C@H](O)[C@H](O)C(=O)/C=C\C[C@H](C)OC2=O (stereo partly specified)    123%

Alright, here's another molecule for you.
*Q* Entry C/C(=C1/C(=O)Nc2ccc(NC(N)=O)cc21)c1ccc[nH]1 : reported residual activity = ?
*A* 91%

* * *

# tested.on: UniProt:Q99683
# Sequence (Q99683 whole entry, looked up): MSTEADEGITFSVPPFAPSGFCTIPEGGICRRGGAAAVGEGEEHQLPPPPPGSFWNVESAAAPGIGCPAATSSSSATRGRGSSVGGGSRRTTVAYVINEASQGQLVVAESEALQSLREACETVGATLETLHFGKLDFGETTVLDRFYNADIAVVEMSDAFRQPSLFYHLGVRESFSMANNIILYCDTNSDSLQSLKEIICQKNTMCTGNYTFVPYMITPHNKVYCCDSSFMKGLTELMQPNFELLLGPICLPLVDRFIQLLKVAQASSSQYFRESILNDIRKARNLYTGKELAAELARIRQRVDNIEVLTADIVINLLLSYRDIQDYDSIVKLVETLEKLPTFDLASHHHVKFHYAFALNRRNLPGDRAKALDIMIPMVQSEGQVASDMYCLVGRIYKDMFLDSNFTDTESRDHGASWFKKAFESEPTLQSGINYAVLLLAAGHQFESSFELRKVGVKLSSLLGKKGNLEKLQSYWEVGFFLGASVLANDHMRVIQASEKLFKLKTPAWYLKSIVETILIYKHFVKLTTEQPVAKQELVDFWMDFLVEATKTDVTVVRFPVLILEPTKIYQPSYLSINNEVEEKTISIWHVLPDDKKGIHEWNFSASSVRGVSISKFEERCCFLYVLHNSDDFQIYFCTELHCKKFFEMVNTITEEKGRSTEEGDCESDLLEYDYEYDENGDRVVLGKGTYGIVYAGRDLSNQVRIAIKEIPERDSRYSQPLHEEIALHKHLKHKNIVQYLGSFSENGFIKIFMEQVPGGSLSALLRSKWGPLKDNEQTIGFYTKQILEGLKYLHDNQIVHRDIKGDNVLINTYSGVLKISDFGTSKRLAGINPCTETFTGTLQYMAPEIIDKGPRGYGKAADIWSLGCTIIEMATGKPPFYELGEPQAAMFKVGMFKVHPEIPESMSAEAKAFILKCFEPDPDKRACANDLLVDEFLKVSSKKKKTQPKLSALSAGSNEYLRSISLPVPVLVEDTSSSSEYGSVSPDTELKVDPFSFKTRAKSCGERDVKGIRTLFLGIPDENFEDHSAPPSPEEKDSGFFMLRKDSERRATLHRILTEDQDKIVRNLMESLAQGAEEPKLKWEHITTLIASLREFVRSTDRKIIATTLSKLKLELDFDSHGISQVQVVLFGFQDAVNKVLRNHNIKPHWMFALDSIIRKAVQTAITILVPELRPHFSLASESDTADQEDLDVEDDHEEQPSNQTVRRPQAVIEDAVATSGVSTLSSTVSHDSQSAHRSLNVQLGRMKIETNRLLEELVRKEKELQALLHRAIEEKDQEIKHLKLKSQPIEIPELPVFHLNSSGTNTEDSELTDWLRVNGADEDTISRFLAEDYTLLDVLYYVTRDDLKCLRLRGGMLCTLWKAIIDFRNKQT
# assay.remarks: radiometric filter-binding kinase assay
# run.conditions: compound 10.0 µM
Overview of recorded residual activity for various molecules
Just the number plus its unit, please.

c1ccc2c(-c3cnn4cc(-c5ccc(N6CCNCC6)cc5)cnc34)ccnc2c1    91%
COC(=O)/C=C/C(=O)OC    93%
CCNc1nc(Nc2cc(F)c(C(=O)N3CCOCC3)cc2OC)ncc1C(F)(F)F    10%
CCCC(CCC)C(=O)O    92%
CC(C)(C#N)c1ccc(N2C(=O)OCc3cnc4ccc(-c5cnc6ccccc6c5)cc4c32)cc1    111%

*Q* Entry C=CC(=O)N1CCC[C@@H](n2nc(-c3ccc(Oc4ccccc4)cc3)c3c(N)ncnc32)C1 : reported residual activity = ?
*A* 111%

*Q* Entry NC(=O)c1ccc(-c2ccc(Oc3cncc4sc(-c5nn[nH]n5)cc34)cc2)cc1 : reported residual activity = ?
*A* 112%

*Q* Entry O=S(=O)(c1ccc(F)c2nonc12)N1CCN(c2ncc(C(F)(F)F)cc2Cl)CC1 : reported residual activity = ?
*A* 101%

*Q* Entry Cc1ccc(=O)n(-c2ccccc2)c1 : reported residual activity = ?
*A* 99%

*Q* Entry NC(=O)c1cc(-c2ccnc(NC3CCCCC3)c2)nc(N2CCNCC2)c1 : reported residual activity = ?
*A* 21%

*Q* Entry Nc1cccc2c1CN(C1CCC(=O)NC1=O)C2=O (stereo unspecified) : reported residual activity = ?
*A* 101%

* * *

# tested.on: CaMK1 (human) (UniProt Q14012)
# Sequence (Q14012 whole entry, looked up): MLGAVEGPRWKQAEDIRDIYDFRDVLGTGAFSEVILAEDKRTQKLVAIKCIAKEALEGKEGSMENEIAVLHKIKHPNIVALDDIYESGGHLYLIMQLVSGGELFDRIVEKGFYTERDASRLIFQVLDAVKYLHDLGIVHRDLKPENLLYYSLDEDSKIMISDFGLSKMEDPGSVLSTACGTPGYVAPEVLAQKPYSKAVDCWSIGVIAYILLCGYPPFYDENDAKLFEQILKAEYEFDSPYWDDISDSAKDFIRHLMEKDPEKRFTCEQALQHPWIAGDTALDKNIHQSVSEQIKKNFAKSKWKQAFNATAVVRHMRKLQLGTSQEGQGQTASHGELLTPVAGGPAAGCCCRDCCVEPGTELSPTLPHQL
# assay.remarks: radiometric filter-binding kinase assay
# run.conditions: compound 1.0 µM
Overview of recorded residual activity for various compounds
Your answer is read as %, so omit the unit and give the number.

NCC(=O)Nc1ccc(-n2nc(C(F)(F)F)cc2-c2ccc3c(ccc4ccccc43)c2)cc1    109
COc1ccc2c(c1)c1c3c(c4c5ccccc5n(C)c4c1n2CC(O)CN(C)C)C(=O)NC3=O (stereo not drawn)    55

Alright, here's another compound for you.
*Q* Entry N#Cc1c(C2CCNCC2)cc(-c2c(O)cccc2OCC2CC2)nc1N : reported residual activity = ?
*A* 85

* * *

Overview of recorded residual activity for various compounds
# tested.on: UniProtKB Q15746
# Sequence (Q15746 whole entry, looked up): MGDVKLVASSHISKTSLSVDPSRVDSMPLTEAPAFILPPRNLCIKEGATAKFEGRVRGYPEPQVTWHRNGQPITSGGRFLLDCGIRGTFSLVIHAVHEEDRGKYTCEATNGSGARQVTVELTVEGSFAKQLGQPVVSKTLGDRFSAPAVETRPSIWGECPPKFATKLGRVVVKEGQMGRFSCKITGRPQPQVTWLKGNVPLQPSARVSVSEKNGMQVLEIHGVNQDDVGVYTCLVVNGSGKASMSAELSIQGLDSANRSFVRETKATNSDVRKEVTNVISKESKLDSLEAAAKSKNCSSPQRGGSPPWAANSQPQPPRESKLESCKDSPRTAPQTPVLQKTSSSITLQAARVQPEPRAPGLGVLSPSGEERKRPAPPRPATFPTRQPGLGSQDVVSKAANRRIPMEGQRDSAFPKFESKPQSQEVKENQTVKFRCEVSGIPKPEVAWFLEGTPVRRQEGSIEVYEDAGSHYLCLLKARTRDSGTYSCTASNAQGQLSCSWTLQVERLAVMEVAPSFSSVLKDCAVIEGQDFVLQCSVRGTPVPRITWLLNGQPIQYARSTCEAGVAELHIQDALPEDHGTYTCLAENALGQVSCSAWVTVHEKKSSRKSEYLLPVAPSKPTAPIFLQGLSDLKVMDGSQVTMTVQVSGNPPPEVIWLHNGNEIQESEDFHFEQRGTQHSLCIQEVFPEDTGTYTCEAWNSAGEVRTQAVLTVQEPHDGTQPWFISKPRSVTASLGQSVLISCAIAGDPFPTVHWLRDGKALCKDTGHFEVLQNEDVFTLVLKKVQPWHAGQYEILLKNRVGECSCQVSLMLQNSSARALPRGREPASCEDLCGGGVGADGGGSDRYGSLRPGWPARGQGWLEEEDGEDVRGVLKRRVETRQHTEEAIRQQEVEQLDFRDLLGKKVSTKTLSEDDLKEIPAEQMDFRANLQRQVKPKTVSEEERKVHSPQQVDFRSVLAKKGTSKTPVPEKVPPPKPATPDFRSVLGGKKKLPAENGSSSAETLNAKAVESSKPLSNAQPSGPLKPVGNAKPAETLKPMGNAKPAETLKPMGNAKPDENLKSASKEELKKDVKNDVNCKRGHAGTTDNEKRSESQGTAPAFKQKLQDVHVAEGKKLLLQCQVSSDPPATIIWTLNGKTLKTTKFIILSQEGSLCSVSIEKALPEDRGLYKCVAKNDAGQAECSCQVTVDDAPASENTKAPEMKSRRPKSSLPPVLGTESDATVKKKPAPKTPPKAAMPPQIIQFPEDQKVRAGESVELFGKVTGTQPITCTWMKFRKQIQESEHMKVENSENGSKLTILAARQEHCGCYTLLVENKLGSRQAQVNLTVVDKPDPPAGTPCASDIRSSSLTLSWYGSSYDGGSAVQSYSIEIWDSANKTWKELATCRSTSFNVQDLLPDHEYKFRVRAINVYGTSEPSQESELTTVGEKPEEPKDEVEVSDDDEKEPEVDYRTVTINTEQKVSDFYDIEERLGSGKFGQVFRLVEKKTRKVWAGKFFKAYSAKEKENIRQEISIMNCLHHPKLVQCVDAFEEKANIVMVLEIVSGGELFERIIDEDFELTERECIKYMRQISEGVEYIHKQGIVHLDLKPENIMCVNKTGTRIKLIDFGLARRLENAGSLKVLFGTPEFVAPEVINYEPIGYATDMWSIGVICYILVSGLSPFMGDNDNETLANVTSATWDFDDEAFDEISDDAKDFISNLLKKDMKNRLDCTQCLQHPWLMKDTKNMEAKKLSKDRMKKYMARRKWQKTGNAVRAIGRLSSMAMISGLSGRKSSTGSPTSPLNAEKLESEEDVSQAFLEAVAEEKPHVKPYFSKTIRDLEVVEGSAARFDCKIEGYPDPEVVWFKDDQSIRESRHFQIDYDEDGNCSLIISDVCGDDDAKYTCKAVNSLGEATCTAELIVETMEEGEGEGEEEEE
# assay.remarks: radiometric filter-binding kinase assay
# run.conditions: compound 10.0 µM
Your answer is read as %, so omit the unit and give the number.

// worked examples, residual activity included
N#Cc1c(C2CCNCC2)cc(-c2c(O)cccc2OCC2CC2)nc1N    25
O=C(N[C@@H](COc1ccc2[nH]c(=O)[nH]c2c1)c1ccccc1)c1cccn(Cc2ccc(F)c(F)c2)c1=O    89
c1ccc2c(-c3cnn4cc(-c5ccc(N6CCNCC6)cc5)cnc34)ccnc2c1    60

*Q* Find residual activity (UniProtKB Q15746) for the entry Cn1nc(Nc2ccc(F)cc2)c2c(N)ncnc21
*A* 107

*Q* Find residual activity (UniProtKB Q15746) for the entry CNc1nc(-c2ccc3c(N)n[nH]c3c2)cc(N2C[C@@H](C(=O)NC3CCCCC3)CC[C@H]2C)n1
*A* 62

* * *

Overview of recorded residual activity for various molecules
# Tested on: ROCK2 (rat)
# assay.remarks: radiometric filter-binding kinase assay
# run.conditions: compound 0.1 µM; accession and sequence are those of the human protein
Your answer is read as %, so omit the unit and give the number.

// worked examples, residual activity included
CCn1c(-c2nonc2N)nc2cncc(CNC3CCNCC3)c21    31
O=C(NCCCNc1nc(Nc2cccc(CN3CCOCC3)c2)ncc1C1CC1)C1CCC1    91

Alright, here's another molecule for you.
*Q* Entry Cn1c(=O)c2c(ncn2C)n(C)c1=O : reported residual activity = ?
*A* 91

* * *

Overview of recorded residual activity for various compounds
# tested.on: MAPK8 (human)
# assay.remarks: radiometric filter-binding kinase assay
# run.conditions: compound 1.0 µM
Your answer is read as %, so omit the unit and give the number.

// worked examples, residual activity included
NC(=O)c1cc2c(-c3cccc(-c4ccccc4)c3)cnc(N)c2s1    69
CN(C)C/C=C/C(=O)Nc1cccc(C(=O)Nc2ccc(Nc3nccc(-c4cccnc4)n3)cc2)c1    4
COc1ccc(N(C(=O)Nc2c(C)cccc2C)c2cc(Nc3ccc(N4CCN(C)CC4)cc3)ncn2)c(OC)c1    86
FC(F)(F)c1ccc(-c2ccc(Oc3cncc4sc(-c5nn[nH]n5)cc34)cc2)cc1    103
Cc1cc(SCc2sc(-c3ccc(C(F)(F)F)cc3)nc2C)ccc1OCC(=O)O    83

*Q* Entry COc1cc(O)c2c(c1)/C=C/C[C@H](O)[C@H](O)C(=O)/C=C\C[C@H](C)OC2=O : reported residual activity = ?
*A* 52

*Q* Entry NC1(c2ccc(-c3nc4ccn5c(=O)[nH]nc5c4cc3-c3ccccc3)cc2)CCC1 : reported residual activity = ?
*A* 100

*Q* Entry Cc1cccc(-c2nn(C(=S)Nc3ccccc3)cc2-c2ccnc3ccccc23)n1 : reported residual activity = ?
*A* 101

*Q* Entry Cc1nc(-c2ccc(OCC(C)C)c(C#N)c2)sc1C(=O)O : reported residual activity = ?
*A* 95

* * *

# tested.on: SIK2 (human)
# assay.remarks: radiometric filter-binding kinase assay
# run.conditions: compound 10.0 µM
property.name: residual activity

// worked examples, residual activity included
Nc1cccc2c1CN(C1CCC(=O)NC1=O)C2=O (stereo not given)    91%
CCNc1nc(Nc2cc(F)c(C(=O)N3CCOCC3)cc2OC)ncc1C(F)(F)F    21%
O=C(Nc1cccnc1)c1cc(-c2ccnc(F)c2)ccc1OCc1ccccc1    111%

*Q* Entry Cc1ccc(-c2ccc3c(ccc4sc5c(c43)NC[C@@H](C)NC5=O)n2)cn1 : reported residual activity = ?
*A* 77%

*Q* Entry CC1=C(CO)C(=O)O[C@@H]([C@@H](C)[C@H]2CC[C@H]3[C@@H]4C[C@H]5O[C@]56[C@@H](O)C=CC(=O)[C@]6(C)C4CC[C@]23C)C1 (stereo not given in full) : reported residual activity = ?
*A* 66%

* * *

# tested.on: PRKCA (human) (UniProt P17252)
# assay.remarks: radiometric filter-binding kinase assay
# run.conditions: compound 100.0 µM
Overview of recorded residual activity for various compounds
Your answer is read as %, so omit the unit and give the number.

Cc1ccc2c(c1)C(=O)[C@@]1(O)CCN(c3ccccc3)C1=N2    75
COC(=O)/C=C/C(=O)OC    101
Cc1cc(N=Nc2cc(S(=O)(=O)O)c(C)cc2C)c(N)cc1O    81

Alright, here's another compound for you.
*Q* Entry N#Cc1c(O)c2c(-c3ccc(-c4ccccc4O)cc3)csc2[nH]c1=O : reported residual activity = ?
*A* 90

* * *

Overview of recorded residual activity for various compounds
# tested.on: MAP4K3 (human)
# assay.remarks: radiometric filter-binding kinase assay
# run.conditions: compound 1.0 µM
Just the number plus its unit, please.

// worked examples, residual activity included
CCNc1nc(Nc2cc(F)c(C(=O)N3CCOCC3)cc2OC)ncc1C(F)(F)F    69%
C=C1C(=O)OC2C1CC/C(C)=C/CCC1(C)OC21 (stereo not drawn)    95%
CC1=C(CO)C(=O)O[C@@H]([C@@H](C)[C@H]2CC[C@H]3[C@@H]4C[C@H]5O[C@]56[C@@H](O)C=CC(=O)[C@]6(C)C4CC[C@]23C)C1 (stereo partly drawn)    85%

*Q* Entry Cc1ccc(-c2ccc3c(ccc4sc5c(c43)NC[C@@H](C)NC5=O)n2)cn1 : reported residual activity = ?
*A* 72%

*Q* Entry Nc1cccc2c1CN(C1CCC(=O)NC1=O)C2=O (stereo not drawn) : reported residual activity = ?
*A* 100%
